Hey, just so you know, these numbers are from PubChem BioAssay AID1963836.

Listed here are molecules together with their documented viability, T/C.
test system: 857933-349-R-J2-PDC complex spheroid viability; test: Anticancer human tumor 857933-349-R-J2-PDC patient-derived colon adenocarcinoma cell line growth inhibition [POLQ]; details: second compound 1 µM; first compound 0.316 µM; stronger effect = lower value

Solved cases below.
• CCc1cc2c(N3CCc4c(cc(Cn5ccnc5)cc4-c4cn(C)nc4C(F)(F)F)C3=O)cc(C)nc2c(OC)n1 + COC1C(OC(N)=O)C(O)C(Oc2ccc3c(O)c(NC(=O)c4ccc(O)c(CC=C(C)C)c4)c(=O)oc3c2C)OC1(C)C = 78.8%
• CC1COCCN1c1cc(C2(S(C)(=N)=O)CC2)nc(-c2ccnc3[nH]ccc23)n1 (stereo not given) + Nc1ccc(C#CCN(C(=O)Cc2ncc(C(F)(F)F)cc2C(F)(F)F)c2ccc(F)cc2)nn1 = 90.1%
• O=c1[nH]cc(F)c(=O)[nH]1 + COC1C(OC(N)=O)C(O)C(Oc2ccc3c(O)c(NC(=O)c4ccc(O)c(CC=C(C)C)c4)c(=O)oc3c2C)OC1(C)C = 97.3%
• CCc1c2c(nc3ccc(O)cc13)-c1cc3c(c(=O)n1C2)COC(=O)[C@]3(O)CC + Nc1ccc(C#CCN(C(=O)Cc2ncc(C(F)(F)F)cc2C(F)(F)F)c2ccc(F)cc2)nn1 = 8.49%

// next item, viability, T/C requested
Prompt line: What measured viability, T/C goes with C=CC(=O)N1CCN(c2nc(=O)n(-c3c(C)ccnc3C(C)C)c3nc(-c4c(O)cccc4F)c(F)cc23)C(C)C1 (stereo not given) + Cc1cccc(N(C)C(=O)C2C(O)CCN2c2nc(C)cc(C(F)(F)F)c2C#N)c1 ?
Response line: 89.3%

---

system: 857933-349-R-J2-PDC complex spheroid viability; test: Anticancer human tumor 857933-349-R-J2-PDC cell line growth inhibition [POLQ]; details: curve of first compound; second compound 0.316 µM;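 note: spheroids exposed to compounds for seven days before readout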
experimental-readout: IC50 (nM)
Field format: number, assumed nM, no unit text.

Solved cases below.
- COc1cccc(OCCCN)c1-c1cc(Nc2cnc(C#N)cn2)n[nH]1 + COC1C(OC(N)=O)C(O)C(Oc2ccc3c(O)c(NC(=O)c4ccc(O)c(CC=C(C)C)c4)c(=O)oc3c2C)OC1(C)C: 155
- CC1COCCN1c1cc(C2(O)CC3CCC(C2)O3)c2cnn(-c3ccn[nH]3)c2n1 (stereo not given) + Nc1ccc(C#CCN(C(=O)Cc2ncc(C(F)(F)F)cc2C(F)(F)F)c2ccc(F)cc2)nn1: 787
- CC[C@@]1(O)C(=O)OCc2c1cc1n(c2=O)Cc2cc3c(CN(C)C)c(O)ccc3nc2-1 + Cc1cccc(N(C)C(=O)C2C(O)CCN2c2nc(C)cc(C(F)(F)F)c2C#N)c1: 69.5

// next item, IC50 requested
Prompt line: What measured IC50 goes with CC1COCCN1c1cc(C2(O)CC3CCC(C2)O3)c2cnn(-c3ccn[nH]3)c2n1 (stereo not given) + COC1C(OC(N)=O)C(O)C(Oc2ccc3c(O)c(NC(=O)c4ccc(O)c(CC=C(C)C)c4)c(=O)oc3c2C)OC1(C)C ?
Response line: 334

---

Tested on: 857933-349-R-J2-PDC complex spheroid viability
Test: Anticancer human tumor 857933-349-R-J2-PDC cell line growth inhibition [POLQ];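 note: spheroids exposed to compounds for seven days before readout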
Details: curve of first compound; second compound 0.0316 µM
Procedure: Multicellular complex tumor spheroid response to Polymerase (POL) inhibitors (novobiocin, ART-558, RP6685) in combination with a variety of drugs and investigational agents in selected tumor cell lines The POL inhibitors (novobiocin, ART-558, and RP6685) were evaluated both individually and in combination with standard of care and investigational anticancer small molecules within a complex spheroid model of solid tumors. . […]
pIC50: −log10 of the molar value.
experimental-readout: pIC50

- O=C(Nc1ccc(O)c(NS(=O)(=O)c2ccc(F)cc2)c1)c1ccc(-c2ccccc2)cc1 + Cc1cccc(N(C)C(=O)C2C(O)CCN2c2nc(C)cc(C(F)(F)F)c2C#N)c1: < 5.00
- CCc1cc2c(N3CCc4c(cc(Cn5ccnc5)cc4-c4cn(C)nc4C(F)(F)F)C3=O)cc(C)nc2c(OC)n1 + COC1C(OC(N)=O)C(O)C(Oc2ccc3c(O)c(NC(=O)c4ccc(O)c(CC=C(C)C)c4)c(=O)oc3c2C)OC1(C)C: < 5.00
- CNCc1ccc(-c2[nH]c3cc(F)cc4c3c2CCNC4=O)cc1 + COC1C(OC(N)=O)C(O)C(Oc2ccc3c(O)c(NC(=O)c4ccc(O)c(CC=C(C)C)c4)c(=O)oc3c2C)OC1(C)C: < 5.00
- CCCS(=O)(=O)Nc1ccc(F)c(C(=O)c2c[nH]c3ncc(-c4ccc(Cl)cc4)cc23)c1F + COC1C(OC(N)=O)C(O)C(Oc2ccc3c(O)c(NC(=O)c4ccc(O)c(CC=C(C)C)c4)c(=O)oc3c2C)OC1(C)C: 5.25

// next item, pIC50 requested
Prompt line: What measured pIC50 goes with C=CCn1c(=O)c2cnc(Nc3ccc(N4CCN(C)CC4)cc3)nc2n1-c1cccc(C(C)(C)O)n1 + Cc1cccc(N(C)C(=O)C2C(O)CCN2c2nc(C)cc(C(F)(F)F)c2C#N)c1 ?
Response line: < 6.00

---

tested on: 857933-349-R-J2-PDC complex spheroid viability; assay: Anticancer human tumor 857933-349-R-J2-PDC cell line growth inhibition [POLQ]; conditions: second compound 3.16 µM; first compound 0.1 µM; stronger effect = lower value;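 note: spheroids exposed to compounds for seven days before readout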
experimental-readout: viability, T/C (%)
Field format: number, assumed %, no unit text.

Solved cases below.
* CC[C@@]1(O)C(=O)OCc2c1cc1n(c2=O)Cc2cc3c(CN(C)C)c(O)ccc3nc2-1 + Cc1cccc(N(C)C(=O)C2C(O)CCN2c2nc(C)cc(C(F)(F)F)c2C#N)c1 | 46
* Cn1ncnc1[C@H]1c2n[nH]c(=O)c3cc(F)cc(c23)N[C@@H]1c1ccc(F)cc1 + Cc1cccc(N(C)C(=O)C2C(O)CCN2c2nc(C)cc(C(F)(F)F)c2C#N)c1 | 97.1
* Nc1ccn(C2OC(CO)C(O)C2(F)F)c(=O)n1 (stereo unspecified) + Nc1ccc(C#CCN(C(=O)Cc2ncc(C(F)(F)F)cc2C(F)(F)F)c2ccc(F)cc2)nn1 | 52.8

Prompt line: What measured viability, T/C goes with CNCc1ccc(-c2[nH]c3cc(F)cc4c3c2CCNC4=O)cc1 + Cc1cccc(N(C)C(=O)C2C(O)CCN2c2nc(C)cc(C(F)(F)F)c2C#N)c1 ?
Response line: 112

Prompt line: What measured viability, T/C goes with CC1COCCN1c1cc(-c2ccnn2C)c2ccnc(-c3ccn[nH]3)c2n1 (stereo unspecified) + Nc1ccc(C#CCN(C(=O)Cc2ncc(C(F)(F)F)cc2C(F)(F)F)c2ccc(F)cc2)nn1 ?
Response line: 68.2

Prompt line: What measured viability, T/C goes with COc1cccc(OCCCN)c1-c1cc(Nc2cnc(C#N)cn2)n[nH]1 + Cc1cccc(N(C)C(=O)C2C(O)CCN2c2nc(C)cc(C(F)(F)F)c2C#N)c1 ?
Response line: 69.6

Prompt line: What measured viability, T/C goes with C=CC(=O)N1CCN(c2nc(=O)n(-c3c(C)ccnc3C(C)C)c3nc(-c4c(O)cccc4F)c(F)cc23)C(C)C1 (stereo unspecified) + Cc1cccc(N(C)C(=O)C2C(O)CCN2c2nc(C)cc(C(F)(F)F)c2C#N)c1 ?
Response line: 106

Prompt line: What measured viability, T/C goes with Nc1ccn(C2OC(CO)C(O)C2(F)F)c(=O)n1 (stereo unspecified) + Cc1cccc(N(C)C(=O)C2C(O)CCN2c2nc(C)cc(C(F)(F)F)c2C#N)c1 ?
Response line: 60

---

Listed here are molecules together with their documented viability, T/C.
test system: 857933-349-R-J2-PDC complex spheroid viability; experiment: Anticancer human tumor 857933-349-R-J2-PDC cell line growth inhibition [POLQ]; conditions: second compound 1 µM; first compound 0.001 µM; stronger effect = lower value;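 note: spheroids exposed to compounds for seven days before readout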
Field format: number, assumed %, no unit text.

Solved cases below.
• CC[C@@]1(O)C(=O)OCc2c1cc1n(c2=O)Cc2cc3c(CN(C)C)c(O)ccc3nc2-1 + COC1C(OC(N)=O)C(O)C(Oc2ccc3c(O)c(NC(=O)c4ccc(O)c(CC=C(C)C)c4)c(=O)oc3c2C)OC1(C)C = 83.5
• CC[C@@]1(O)C(=O)OCc2c1cc1n(c2=O)Cc2cc3c(CN(C)C)c(O)ccc3nc2-1 + Nc1ccc(C#CCN(C(=O)Cc2ncc(C(F)(F)F)cc2C(F)(F)F)c2ccc(F)cc2)nn1 = 100

// next item, viability, T/C requested
Prompt line: What measured viability, T/C goes with Cn1ncnc1[C@H]1c2n[nH]c(=O)c3cc(F)cc(c23)N[C@@H]1c1ccc(F)cc1 + COC1C(OC(N)=O)C(O)C(Oc2ccc3c(O)c(NC(=O)c4ccc(O)c(CC=C(C)C)c4)c(=O)oc3c2C)OC1(C)C ?
Response line: 93.4
